- PROTOCOL_SUMMARY: Cytotoxicity by WST-8 assay using uninfected Vero E6 cells
- Type: cell-based
- RUN_CONDITIONS: African green monkey; WST-8 assay, uninfected Vero E6 cells; read-out: CC50

{"COMPOUND": "Nc1cc2[nH]cnc2c(=O)[nH]1 [Compound 10]", "CC50": "> 200 µM"}
{"COMPOUND": "CCC(CC)COC(=O)[C@H](C)N[P@](=O)(OC[C@H]1O[C@@](C#N)(c2ccc3c(N)ncnn23)[C@H](O)[C@@H]1O)Oc1ccccc1 [Remdesivir, reference compound]", "CC50": "> 200 µM"}
